- assay-system: Periplasmic serine endoprotease DegP (Escherichia coli (strain K12)) (UniProt P0C0V0)
- Sequence (whole entry): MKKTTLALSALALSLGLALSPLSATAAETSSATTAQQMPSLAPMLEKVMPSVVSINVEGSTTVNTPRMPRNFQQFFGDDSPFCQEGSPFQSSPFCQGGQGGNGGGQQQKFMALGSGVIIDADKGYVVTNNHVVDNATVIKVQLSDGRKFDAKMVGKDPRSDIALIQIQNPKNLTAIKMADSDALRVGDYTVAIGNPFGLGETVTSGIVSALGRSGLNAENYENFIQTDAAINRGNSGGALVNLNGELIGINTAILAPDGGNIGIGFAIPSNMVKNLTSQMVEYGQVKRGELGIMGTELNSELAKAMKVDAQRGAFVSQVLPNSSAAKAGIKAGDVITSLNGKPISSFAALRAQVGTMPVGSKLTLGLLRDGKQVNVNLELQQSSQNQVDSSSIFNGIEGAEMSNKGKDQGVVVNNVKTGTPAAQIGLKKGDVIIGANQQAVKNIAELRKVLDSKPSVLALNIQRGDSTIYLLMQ
- assay-overview: Binding affinity to recombinant Escherichia coli DegP assessed as increase in fluorescence using H2-OPT as substrate at 1 uM by SDS-PAGE based gel fluorescence scanning analysis
The source made the active and inactive calls. The rule behind the calls is not given here.

>  <sample-smiles>
CC(C)C[C@H](NC(=O)CCCCCNC(=O)c1ccc(C(=O)O)c(-c2c3ccc(=O)cc-3oc3cc(O)ccc23)c1)C(=O)N[C@@H](Cc1ccccc1)C(=O)N[C@@H](CC(C)(C)C)C(=O)N[C@@H](C(C)C)P(=O)(Oc1ccccc1)Oc1ccccc1

>  <Activity>
inactive

$$$$
>  <sample-smiles>
CC(C)[C@H](NC(=O)[C@H](CC(C)(C)C)NC(=O)[C@H](CCCCN)NC(=O)[C@H](Cc1ccccc1)NC(=O)CCCCCNC(=O)c1ccc(C(=O)O)c(-c2c3ccc(=O)cc-3oc3cc(O)ccc23)c1)P(=O)(Oc1ccccc1)Oc1ccccc1

>  <Activity>
inactive

$$$$
>  <sample-smiles>
CC(C)[C@H](NC(=O)C1(NC(=O)[C@H](CCCCN)NC(=O)[C@H](Cc2ccccc2)NC(=O)CCCCCNC(=O)c2ccc(C(=O)O)c(-c3c4ccc(=O)cc-4oc4cc(O)ccc34)c2)CC1)P(=O)(Oc1ccccc1)Oc1ccccc1

>  <Activity>
inactive

$$$$
>  <sample-smiles>
CC(C)C[C@H](NC(=O)C1(NC(=O)[C@H](CCCCN)NC(=O)[C@H](Cc2ccccc2)NC(=O)CCCCCNC(=O)c2ccc(C(=O)O)c(-c3c4ccc(=O)cc-4oc4cc(O)ccc34)c2)CC1)P(=O)(Oc1ccccc1)Oc1ccccc1

>  <Activity>
inactive

$$$$

---

- assay-system: UniProtKB O43464
- Sequence (O43464 whole entry): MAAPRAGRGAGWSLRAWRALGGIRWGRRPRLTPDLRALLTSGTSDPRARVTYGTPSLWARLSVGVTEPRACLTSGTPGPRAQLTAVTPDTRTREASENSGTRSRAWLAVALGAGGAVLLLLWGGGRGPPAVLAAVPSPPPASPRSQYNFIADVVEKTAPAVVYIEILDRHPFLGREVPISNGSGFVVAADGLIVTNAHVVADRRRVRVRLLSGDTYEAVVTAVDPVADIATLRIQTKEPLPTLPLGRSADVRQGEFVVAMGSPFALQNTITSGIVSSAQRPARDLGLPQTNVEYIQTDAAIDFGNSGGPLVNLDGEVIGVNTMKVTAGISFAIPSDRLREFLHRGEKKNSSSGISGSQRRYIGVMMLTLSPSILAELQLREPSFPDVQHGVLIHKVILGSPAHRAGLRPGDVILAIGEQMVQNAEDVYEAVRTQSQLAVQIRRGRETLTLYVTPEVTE
- assay-overview: Binding affinity to recombinant human HTRA2 assessed as increase in fluorescence using H2-OPT as substrate at 1 uM by SDS-PAGE based gel fluorescence scanning analysis
Calls of active or inactive are those of the source. No cut-off for these calls is given here.
Possible outcomes: active, inactive

>  <sample-smiles>
CC(C)C[C@H](NC(=O)CCCCCNC(=O)c1ccc(C(=O)O)c(-c2c3ccc(=O)cc-3oc3cc(O)ccc23)c1)C(=O)N[C@@H](Cc1ccccc1)C(=O)N[C@@H](CC(C)(C)C)C(=O)N[C@@H](C(C)C)P(=O)(Oc1ccccc1)Oc1ccccc1

>  <assay-system>
UniProtKB O43464

>  <answer-label>
active

$$$$
>  <sample-smiles>
CC(C)[C@H](NC(=O)C1(NC(=O)[C@H](CCCCN)NC(=O)[C@H](Cc2ccccc2)NC(=O)CCCCCNC(=O)c2ccc(C(=O)O)c(-c3c4ccc(=O)cc-4oc4cc(O)ccc34)c2)CC1)P(=O)(Oc1ccccc1)Oc1ccccc1

>  <assay-system>
UniProtKB O43464

>  <answer-label>
inactive

$$$$
>  <sample-smiles>
CC(C)C[C@H](NC(=O)[C@H](CCCCN)NC(=O)[C@H](Cc1ccc2ccccc2c1)NC(=O)CCCCCNC(=O)c1ccc(C(=O)O)c(-c2c3ccc(=O)cc-3oc3cc(O)ccc23)c1)C(=O)N[C@@H](CC(C)C)P(=O)(Oc1ccccc1)Oc1ccccc1

>  <assay-system>
UniProtKB O43464

>  <answer-label>
active

$$$$
>  <sample-smiles>
CC(C)C[C@H](NC(=O)CCCCCNC(=O)c1ccc(C(=O)O)c(-c2c3ccc(=O)cc-3oc3cc(O)ccc23)c1)C(=O)N[C@@H](Cc1ccc2ccccc2c1)C(=O)N[C@@H](CC(C)C)C(=O)N[C@@H](C(C)C)P(=O)(Oc1ccccc1)Oc1ccccc1

>  <assay-system>
UniProtKB O43464

>  <answer-label>
active

$$$$

---

- assay-system: Serine protease HTRA2, mitochondrial (Homo sapiens)
- assay-overview: Binding affinity to recombinant human HTRA2 assessed as increase in fluorescence using H2-OPT as substrate at 1 uM by SDS-PAGE based gel fluorescence scanning analysis
The source made the active and inactive calls. The calls are words filed in the database; no cut-off is given here.
Possible outcomes: true for active, false for inactive

>  <sample-smiles>
CC(C)C[C@H](NC(=O)[C@H](CCCCN)NC(=O)[C@H](Cc1ccc2ccccc2c1)NC(=O)CCCCCNC(=O)c1ccc(C(=O)O)c(-c2c3ccc(=O)cc-3oc3cc(O)ccc23)c1)C(=O)N[C@@H](C(C)C)P(=O)(Oc1ccccc1)Oc1ccccc1

>  <answer-label>
true

$$$$
>  <sample-smiles>
CC(C)C[C@H](NC(=O)CCCCCNC(=O)c1ccc(C(=O)O)c(-c2c3ccc(=O)cc-3oc3cc(O)ccc23)c1)C(=O)N[C@@H](Cc1ccccc1)C(=O)NC1(C(=O)N[C@@H](C(C)C)P(=O)(Oc2ccccc2)Oc2ccccc2)CC1

>  <answer-label>
false

$$$$
>  <sample-smiles>
CC(C)C[C@H](NC(=O)CCCCCNC(=O)c1ccc(C(=O)O)c(-c2c3ccc(=O)cc-3oc3cc(O)ccc23)c1)C(=O)N[C@@H](Cc1ccccc1)C(=O)N[C@@H](CC1CC1)C(=O)N[C@@H](C(C)C)P(=O)(Oc1ccccc1)Oc1ccccc1

>  <answer-label>
true

$$$$
>  <sample-smiles>
CC(C)C[C@H](NC(=O)C1(NC(=O)[C@H](CCCCN)NC(=O)[C@H](Cc2ccccc2)NC(=O)CCCCCNC(=O)c2ccc(C(=O)O)c(-c3c4ccc(=O)cc-4oc4cc(O)ccc34)c2)CC1)P(=O)(Oc1ccccc1)Oc1ccccc1

>  <answer-label>
false

$$$$
>  <sample-smiles>
CC(C)[C@H](NC(=O)[C@H](CC1CC1)NC(=O)[C@H](CCCCN)NC(=O)[C@H](Cc1ccccc1)NC(=O)CCCCCNC(=O)c1ccc(C(=O)O)c(-c2c3ccc(=O)cc-3oc3cc(O)ccc23)c1)P(=O)(Oc1ccccc1)Oc1ccccc1

>  <answer-label>
true

$$$$

---

Reported values of pIC50 for individual entries
- assay-system: Serine protease HTRA1 (Homo sapiens)
- Sequence (Q92743 whole entry): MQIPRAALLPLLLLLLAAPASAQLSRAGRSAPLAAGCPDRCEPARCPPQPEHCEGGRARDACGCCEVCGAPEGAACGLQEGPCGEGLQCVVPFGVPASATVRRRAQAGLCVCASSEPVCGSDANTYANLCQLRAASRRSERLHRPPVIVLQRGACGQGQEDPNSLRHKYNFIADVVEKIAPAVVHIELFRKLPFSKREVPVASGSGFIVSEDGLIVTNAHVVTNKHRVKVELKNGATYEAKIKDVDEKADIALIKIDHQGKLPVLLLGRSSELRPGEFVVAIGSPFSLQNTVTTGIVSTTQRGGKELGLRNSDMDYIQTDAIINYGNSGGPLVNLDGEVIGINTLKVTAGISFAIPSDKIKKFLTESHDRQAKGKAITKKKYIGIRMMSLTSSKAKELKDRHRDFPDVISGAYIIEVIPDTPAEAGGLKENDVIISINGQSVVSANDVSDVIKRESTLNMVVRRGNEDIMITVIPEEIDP
- assay-overview: Inhibition of recombinant human HTRA1 using H2-OPT as substrate assessed as increase in fluorescence and measured for 2 hrs by fluorescent plate reader analysis
pIC50: −log10 of the molar value.
result-type: pIC50

>  <sample-smiles>
CC(C)[C@H](NC(=O)[C@H](CC1CC1)NC(=O)[C@H](CCCCN)NC(=O)[C@H](Cc1ccccc1)NC(=O)CCCCCNC(=O)c1ccc(C(=O)O)c(-c2c3ccc(=O)cc-3oc3cc(O)ccc23)c1)P(=O)(Oc1ccccc1)Oc1ccccc1

>  <result-type>
pIC50

>  <measurement-qualifier>
=

>  <reported-result>
5.20

$$$$
>  <sample-smiles>
NCCc1ccc(S(=O)(=O)F)cc1

>  <result-type>
pIC50

>  <measurement-qualifier>
<

>  <reported-result>
3.00

$$$$
>  <sample-smiles>
CC(C)C[C@H](NC(=O)CCCCCNC(=O)c1ccc(C(=O)O)c(-c2c3ccc(=O)cc-3oc3cc(O)ccc23)c1)C(=O)N[C@@H](Cc1ccccc1)C(=O)N[C@@H](CC(C)C)C(=O)N[C@@H](C(C)C)P(=O)(Oc1ccccc1)Oc1ccccc1

>  <result-type>
pIC50

>  <measurement-qualifier>
=

>  <reported-result>
5.70

$$$$
>  <sample-smiles>
O=C1C(=Cc2ccc(-c3ccccc3[N+](=O)[O-])o2)C(=O)N(c2ccccc2)C(=S)N1c1ccccc1

>  <result-type>
pIC50

>  <measurement-qualifier>
<

>  <reported-result>
4.30

$$$$

---

- assay-system: Periplasmic serine endoprotease DegP (Escherichia coli (strain K12))
- assay-overview: Binding affinity to recombinant Escherichia coli DegP assessed as increase in fluorescence using H2-OPT as substrate at 1 uM by SDS-PAGE based gel fluorescence scanning analysis
Calls of active or inactive are those of the source. The calls are words filed in the database; no cut-off is given here.
Possible outcomes: TRUE = active, FALSE = inactive

>  <sample-smiles>
CC[C@H](NC(=O)[C@H](CCCCN)NC(=O)[C@H](Cc1ccccc1)NC(=O)CCCCCNC(=O)c1ccc(C(=O)O)c(-c2c3ccc(=O)cc-3oc3cc(O)ccc23)c1)C(=O)N[C@@H](C(C)C)P(=O)(Oc1ccccc1)Oc1ccccc1

>  <answer-label>
TRUE

$$$$
>  <sample-smiles>
CC[C@H](NC(=O)[C@H](CCCCN)NC(=O)[C@H](Cc1ccccc1)NC(=O)CCCCCNC(=O)c1ccc(C(=O)O)c(-c2c3ccc(=O)cc-3oc3cc(O)ccc23)c1)C(=O)N[C@@H](CC(C)C)P(=O)(Oc1ccccc1)Oc1ccccc1

>  <answer-label>
FALSE

$$$$
>  <sample-smiles>
CC(C)C[C@H](NC(=O)CCCCCNC(=O)c1ccc(C(=O)O)c(-c2c3ccc(=O)cc-3oc3cc(O)ccc23)c1)C(=O)N[C@@H](Cc1ccccc1)C(=O)NC1(C(=O)N[C@@H](C(C)C)P(=O)(Oc2ccccc2)Oc2ccccc2)CC1

>  <answer-label>
FALSE

$$$$
>  <sample-smiles>
CC(C)C[C@H](NC(=O)CCCCCNC(=O)c1ccc(C(=O)O)c(-c2c3ccc(=O)cc-3oc3cc(O)ccc23)c1)C(=O)N[C@@H](Cc1ccc2ccccc2c1)C(=O)N[C@@H](CC(C)C)C(=O)N[C@@H](C(C)C)P(=O)(Oc1ccccc1)Oc1ccccc1

>  <answer-label>
FALSE

$$$$
>  <sample-smiles>
CC(C)C[C@H](NC(=O)CCCCCNC(=O)c1ccc(C(=O)O)c(-c2c3ccc(=O)cc-3oc3cc(O)ccc23)c1)C(=O)N[C@@H](Cc1ccccc1)C(=O)N[C@@H](CC1CC1)C(=O)N[C@@H](C(C)C)P(=O)(Oc1ccccc1)Oc1ccccc1

>  <answer-label>
FALSE

$$$$
>  <sample-smiles>
CC(C)C[C@H](NC(=O)[C@H](CCCCN)NC(=O)[C@H](Cc1ccccc1)NC(=O)CCCCCNC(=O)c1ccc(C(=O)O)c(-c2c3ccc(=O)cc-3oc3cc(O)ccc23)c1)C(=O)N[C@@H](C(C)C)P(=O)(Oc1ccccc1)Oc1ccccc1

>  <answer-label>
TRUE

$$$$
